Catalogue of IC50 readings, one per entry.
Molecular target: DRB1*0802 (Homo sapiens, UniProt P01903+P01911, A100R/A103L/A169T/F76Y/H45Y/I96F/K41T/L162R/M171V/P40S/Q125H/Q178H/Q39Y/Q99D/R218S/R42G/S66Y/V115G/W38E)
Test: biochemical
Assay type: binding

{"COMPOUND": "CC(C)C[C@H](NC(=O)[C@H](CC(C)C)NC(=O)[C@@H]1CCCN1C(=O)[C@@H](N)CC(N)=O)C(=O)NCC(=O)N[C@@H](C)C(=O)N[C@@H](C)C(=O)N[C@H](C(=O)N1CCC[C@H]1C(=O)N[C@H](C(=O)NCC(=O)N[C@@H](CC(N)=O)C(=O)N[C@@H](CC(N)=O)C(=O)N[C@@H](CCCCN)C(=O)N[C@@H](CCCNC(=N)N)C(=O)O)[C@@H](C)O)[C@@H](C)O [Peptide 89.0165]", "IC50": "> 20 µM"}
{"COMPOUND": "CC[C@H](C)[C@H](NC(=O)[C@H](C)NC(=O)[C@@H](NC(=O)[C@@H](NC(=O)[C@H](CC(N)=O)NC(=O)[C@H](CC(C)C)NC(=O)[C@H](Cc1ccccc1)NC(=O)[C@H](CCCCN)NC(=O)[C@@H](NC(=O)[C@H](CCCNC(=N)N)NC(=O)[C@H](CCC(N)=O)NC(=O)[C@H](CCCCN)NC(=O)[C@@H](N)CCC(=O)O)[C@@H](C)O)[C@@H](C)O)C(C)C)C(=O)N1CCC[C@H]1C(=O)N[C@@H](CC(=O)O)C(=O)O [Peptide 1601.19]", "IC50": "> 20 µM"}
{"COMPOUND": "CC[C@H](C)[C@H](NC(=O)[C@@H](NC(=O)[C@H](Cc1c[nH]cn1)NC(=O)[C@@H](N)CC(C)C)C(C)C)C(=O)N[C@@H](CO)C(=O)N[C@@H](CC(N)=O)C(=O)N[C@@H](CC(=O)O)C(=O)N[C@H](C(=O)N[C@@H](CS)C(=O)N[C@@H](C)C(=O)N[C@@H](CCC(N)=O)C(=O)N[C@H](C(=O)N[C@@H](Cc1c[nH]cn1)C(=O)N1CCC[C@H]1C(=O)N[C@@H](CCC(N)=O)C(=O)O)C(C)C)C(C)C [Peptide 68.0077]", "IC50": "> 20 µM"}
{"COMPOUND": "CC[C@H](C)[C@H](NC(=O)CNC(=O)[C@@H](NC(=O)[C@H](CCCCN)NC(=O)[C@H](CCC(=O)O)NC(=O)[C@H](CC(N)=O)NC(=O)CNC(=O)[C@H](C)N)[C@@H](C)O)C(=O)N[C@@H](CC(C)C)C(=O)N[C@H](C(=O)N[C@H](C(=O)N[C@H](C(=O)N[C@@H](Cc1ccc(O)cc1)C(=O)N[C@@H](Cc1c[nH]cn1)C(=O)N[C@@H](CO)C(=O)O)[C@@H](C)O)C(C)C)[C@@H](C)O [Peptide 1601.18]", "IC50": "> 20 µM"}
{"COMPOUND": "CSCC[C@H](NC(=O)[C@@H](NC(=O)[C@H](CCCCN)NC(=O)[C@@H](NC(=O)[C@H](C)NC(=O)[C@H](CC(=O)O)NC(=O)[C@@H](N)[C@@H](C)O)C(C)C)C(C)C)C(=O)N[C@@H](CC(=O)O)C(=O)N[C@@H](CC(C)C)C(=O)N1CCC[C@H]1C(=O)N[C@H](C(=O)N[C@@H](CCC(N)=O)C(=O)N[C@@H](CCC(=O)O)C(=O)N1CCC[C@H]1C(=O)N[C@@H](C)C(=O)O)[C@@H](C)O [Peptide 68.0074]", "IC50": "> 20 µM"}

Per the records, this compound ( CC(C)C[C@H](NC(=O)[C@H](CCC(N)=O)NC(=O)[C@H](CCCCN)NC(=O)[C@@H](NC(=O)[C@H](CC(C)C)NC(=O)[C@H](CCC(N)=O)NC(=O)[C@@H](NC(=O)[C@H](C)NC(=O)[C@H](CO)NC(=O)[C@@H](NC(=O)[C@@H](NC(=O)[C@H](CC(=O)O)NC(=O)[C@H](CC(=O)O)NC(=O)[C@@H](N)CO)[C@@H](C)O)C(C)C)[C@@H](C)O)C(C)C)C(=O)N[C@@H](CCC(N)=O)C(=O)O [Peptide 1601.13] ) has IC50 equal to 19.3 µM

Per the records, this compound ( CSCC[C@H](NC(=O)[C@H](CS)NC(=O)[C@H](CC(N)=O)NC(=O)[C@H](CC(=O)O)NC(=O)[C@H](CCCCN)NC(=O)[C@H](CC(N)=O)NC(=O)CN)C(=O)N[C@H](C(=O)N[C@@H](Cc1ccc(O)cc1)C(=O)N[C@H](C(=O)N[C@@H](C)C(=O)N[C@@H](Cc1c[nH]c2ccccc12)C(=O)N[C@@H](CC(=O)O)C(=O)N[C@@H](CO)C(=O)N[C@H](C(=O)O)C(C)C)C(C)C)[C@@H](C)O [Peptide 1601.09] ) has IC50 equal to 11.5 µM

Per the records, this compound ( CC[C@H](C)[C@H](NC(=O)[C@@H](NC(=O)[C@@H]1CCCN1C(=O)CNC(=O)[C@@H](NC(=O)[C@H](CC(C)C)NC(=O)[C@H](CCC(=O)O)NC(=O)[C@H](C)NC(=O)[C@@H](N)Cc1ccccc1)C(C)C)C(C)C)C(=O)N1CCC[C@H]1C(=O)N[C@@H](CCC(N)=O)C(=O)N[C@@H](CC(=O)O)C(=O)N[C@@H](Cc1c[nH]c2ccccc12)C(=O)N[C@@H](CO)C(=O)N[C@H](C(=O)O)[C@@H](C)O [Peptide 68.0056] ) has IC50 equal to > 20 µM

Per the records, this compound ( CC(C)C[C@H](NC(=O)[C@H](CC(=O)O)NC(=O)[C@@H](NC(=O)[C@@H](NC(=O)[C@H](CCC(=O)O)NC(=O)[C@@H]1CCCN1C(=O)[C@H](CCC(N)=O)NC(=O)[C@H](CC(C)C)NC(=O)[C@H](CC(=O)O)NC(=O)[C@@H](N)CC(C)C)[C@@H](C)O)[C@@H](C)O)C(=O)N[C@@H](Cc1ccc(O)cc1)C(=O)N[C@@H](CS)C(=O)N[C@@H](Cc1ccc(O)cc1)C(=O)N[C@@H](CCC(=O)O)C(=O)N[C@@H](CCC(N)=O)C(=O)O [Peptide 1543.04] ) has IC50 equal to > 20 µM

* * *

Target: DRB1*0405 (Homo sapiens, UniProt P01903+P01911, A100R/A169T/D86S/F76Y/I96L/K127E/L162R/M171V/N62H/P40V/Q125Y/R42H/S133A/S149N/S66Y/V115G/V209L/W38E)
Assay: biochemical
Type: binding
No end group written: not given here.
Catalogue of IC50 readings, one per entry.

Completed entries (count: 3):
{"SEQ STRING": "LDHYENDSKDINSQI [Peptide 1601.29]", "IC50": "> 20 µM"}
{"SEQ STRING": "LKAICIENNSKTAKR [Peptide 90.0064]", "IC50": "0.369 µM"}
{"SEQ STRING": "LIQLKCPPILLTTNI [Peptide 89.0038]", "IC50": "3.95 µM"}

Per the records, this sequence ( SEIYIIEETTCTLVA [Peptide 90.0250] ) has IC50 equal to 8.08 µM

Per the records, this sequence ( ILLYGAANTGKSLFG [Peptide 89.0018] ) has IC50 equal to > 20 µM

Per the records, this sequence ( NSIFDFGEMVQWAYD [Peptide 89.0106] ) has IC50 equal to > 20 µM

Per the records, this sequence ( HQVVPALSVSKAKAL [Peptide 89.0169] ) has IC50 equal to 15.5 µM

Per the records, this sequence ( LKVLIKQHSLYTHLQ [Peptide 89.0061] ) has IC50 equal to 0.687 µM

Per the records, this sequence ( RLNLDNDEDKENNGD [Peptide 90.0144] ) has IC50 equal to 1.68 µM

* * *

Catalogue of log10(IC50) readings, one per entry.
Biological target: DRB1*0301 (Homo sapiens, UniProt P01903+P01911, A100K/A102G/A103R/A169T/F55Y/I96L/K41T/L162R/M171V/P40S/Q125H/Q178H/Q39Y/R42S/S66N/T106N/T262R/W38E/Y61H)
Sequence (P01903 26-254 limits assumed, other chains not shown): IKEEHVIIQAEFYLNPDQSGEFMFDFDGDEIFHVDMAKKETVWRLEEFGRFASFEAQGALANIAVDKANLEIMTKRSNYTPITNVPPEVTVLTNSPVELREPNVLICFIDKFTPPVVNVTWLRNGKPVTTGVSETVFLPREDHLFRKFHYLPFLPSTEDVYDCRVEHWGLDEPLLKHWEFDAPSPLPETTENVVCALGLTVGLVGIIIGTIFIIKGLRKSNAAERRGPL
Test: biochemical
Type: binding
No end group written: not given here.
Response schema: value (number) is log10 of IC50 in units of nM.

Completed entries (count: 5):
{"SEQ STRING": "PHAFPFDKNGNPVYE [Peptide 90.0106]", "log10(IC50)": 2.97}
{"SEQ STRING": "VTAIFGVNPTIAEGF [Peptide 89.0023]", "log10(IC50)": 3.53}
{"SEQ STRING": "RHLDKKQRFHNIRGR [Peptide 1543.26]", "log10(IC50)": 3.72}
{"SEQ STRING": "WKAVRHENVLYYKAR [Peptide 90.0230]", "log10(IC50)": 1.88}
{"SEQ STRING": "LKGDANILKCLRYRL [Peptide 1601.26]", "log10(IC50)": 1.72}

# ---- query sequence ----
Per the records, this sequence ( TVTFVTEQQQQMFLG [Peptide 90.0210] ) has log10(IC50) equal to 1.61

Entry source: patent US9340577B2
